tested on: MCF7 breast; test: NCI tumour cell line growth inhibition, 48 h
Quick reference for TGI among some compounds

Some solved entries appear below for comparison.
Which TGI is reported for this compound? CCOC(=O)c1sc2nc(SC)nc3c2c1NCN3c1ccc2c(c1)OCO2
> 100 µM

Now consider ClCCN(CCCl)c1ccc(/C=N/Nc2ccnc3ccccc23)cc1 and answer again.
> 100 µM

Let us now turn to CCN(CC)CCCCCCNc1cc(OC)cc2cccnc12
3.56 µM

Next up: COC1=C(OC)C(=O)C(SC/C=C(\C)CCCC(C)CCCC(C)CCCC(C)C)=CC1=O (stereo not given)
> 26.9 µM

Please answer likewise for Nc1ncnc2oc(C3OC(COC(=O)c4ccccc4)C(OC(=O)c4ccccc4)C3OC(=O)c3ccccc3)nc12 (stereo not given)
> 100 µM

***
Please report the recorded TGI for C[C@]12CC[C@@H]3c4cc(OC(F)F)c(OS(N)(=O)=O)cc4CC[C@H]3[C@@H]1CC[C@@H]2O .
20.8 µM

Also O=C(/C=C/c1ccccc1)Oc1ccc(C(=O)/C=C/c2ccc(Cl)cc2)cc1 ?
> 100 µM

Query COc1cc(/C=C/C(=O)c2cccc(-n3cc(-c4ccc(Cl)cc4)[nH]c3=O)c2)cc(OC)c1OC next
5.75 µM

Now the compound CCOC(=O)C1(C(=O)OCC)[C@@H](c2ccccc2)C2=NO[C@@H]3CCC[C@H]1[C@H]23
> 100 µM

What do we get for O=[N+]([O-])c1ccc(-c2nc3ccc(Cl)cc3[nH]2)cc1 ?
> 100 µM

---

tested on: SR leukemia; experiment: NCI tumour cell line growth inhibition, 48 h
ENDPOINT: TGI

Form field: TGI recorded for CCOC(=O)/C=C/CCO[Si](C)(C)C(C)(C)C with SR leukemia (enter value)
> 100 µM

# iterate: CC(C)(O)CNc1nc(Nc2ccnc(C(F)(F)F)c2)nc(-c2cccc(C(F)(F)F)n2)n1
90.9 µM

Same question for CC(C)=CCN1CC(C)C(=O)Nc2ccccc21 (stereo unspecified) please.
> 100 µM

Now this one: COc1ccc(Oc2cccc(C3C4C(=O)N(c5ccc(C)c(Cl)c5)C(=O)C4ON3C(C(N)=O)c3ccccc3)c2)cc1 (stereo unspecified)
35.6 µM

// repeat for CCOC(=O)CNC(=O)C(CSC(=O)N(O)c1ccc(Cl)cc1)NC(=O)CCC(N)C(=O)OCC (stereo unspecified) and report
> 50 µM

// next record CCCCCO/N=C\c1c2c(O)c3c(O)c(C)c4c(c3c1O)C(=O)C(C)(O/C=C\C(OC)C(C)C(OC(C)=O)C(C)C(O)C(C)C(O)C(C)/C=C\C=C(\C)C(=O)N2)O4 (stereo unspecified)
7.34 µM

Now consider the entry below.
State its TGI on SR leukemia: COC(=O)CCCCC(=O)c1c(C)[nH]c(/C=C2\N=C(c3ccc[nH]3)C=C2OC)c1C
0.313 µM

---

test system: HCC-2998 colon; test: NCI tumour cell line growth inhibition, 48 h
As shown below, each of these compounds has a reported TGI value.

Would you please look over these solved cases?
# input compound: CCOP1(=O)CC(C)=C(Cl)C(O)C1 (stereo unspecified) ; wanted: its TGI
> 100 µM

For C=CNC(=O)NC(=O)CSc1nnc(-c2ccccc2NC(=O)C(F)(F)F)c(=O)[nH]1 then?
> 100 µM

Try the compound Cn1cc(C2=C(c3cccc(OC[C@@H](O)CO)c3)C(=O)NC2=O)c2ccccc21
> 25 µM

Now consider NC1CC(=O)c2c1sc(Cl)c2Cl (stereo unspecified) and answer again.
> 100 µM

New cases:
Tell me the measured TGI of COc1ccc(/C=N/n2c(C)n[nH]c2=O)c(OC)c1 , please.
> 100 µM

Same lookup for CC1=NN(c2nc(N)nc(/C(C#N)=C\c3csc([N+](=O)[O-])c3)n2)C(C)(C)C1 , please.
> 100 µM
